# Tgt: T1, human CTLA4 (soluble analyte of the Biacore assays of Reference Example 3-3) (human, UniProt P16410 36-161)
# T1 construct: also called hCTLA4
# T1 sequence: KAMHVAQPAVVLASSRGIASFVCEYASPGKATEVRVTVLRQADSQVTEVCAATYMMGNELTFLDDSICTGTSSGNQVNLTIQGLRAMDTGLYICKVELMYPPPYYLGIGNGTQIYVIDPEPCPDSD
# Assay Explanation: SPR, 1000 nM CTLA4, per unit antibody, no ATP
Exercise: state measured Binding to Human CTLA4 for each of the binders provided.

04H1077-G1m/04L1041-lam1 (antibody, human IgG1, lambda, V domains shown) VH: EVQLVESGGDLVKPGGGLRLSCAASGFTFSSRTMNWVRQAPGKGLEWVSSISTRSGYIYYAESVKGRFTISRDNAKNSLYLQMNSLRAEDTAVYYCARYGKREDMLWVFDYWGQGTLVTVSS VL: QSALTQPPSASGSPGQTVTISCDGPSTDVGDYNYVHWYQQHPGKAPKLMIYFTSKKPSGVPDRFSGSKSGNTASLTVSGLQAEDEADYFCSTYAAPLGPMFGGGTKLTVLG: 0.006
04H1077-G1m/04L1067-lam1 (antibody, human IgG1, lambda, V domains shown) VH: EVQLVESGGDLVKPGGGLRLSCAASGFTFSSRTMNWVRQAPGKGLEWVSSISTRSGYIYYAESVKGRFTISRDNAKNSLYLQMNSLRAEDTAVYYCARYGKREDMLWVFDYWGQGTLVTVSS VL: QSALTQPPSASGSPGQTVTISCDGPSTGVGDYNYVHWYQQHPGKAPKLMIYFTSKKPSGVPDRFSGSKSGNTASLTVSGLQAEDEADYFCSTYAAPLGPMFGGGTKLTVLG: 0.012

Batch request: Binding to Human CTLA4 for each of the following binders.
1. 04H1208-G1m/04L1086-lam1 (antibody, human IgG1, lambda, V domains shown) VH: EVQLVESGGGLVKPGGSLRLSCAASGFTFSSKTMNWVRQAPGKGLEWVSSISTRSGYIYYARSVKGRFTISRDNAKNSLYLQMNSLRAEDTAVYYCARYGKREDMLWVFDYWGQGTLVTVSS VL: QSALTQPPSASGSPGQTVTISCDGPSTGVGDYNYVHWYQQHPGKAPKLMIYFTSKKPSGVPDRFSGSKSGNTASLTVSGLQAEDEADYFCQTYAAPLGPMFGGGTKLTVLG
2. 04H1077-G1m/04L1305-k0MT (antibody, human IgG1, kappa, V domains shown) VH: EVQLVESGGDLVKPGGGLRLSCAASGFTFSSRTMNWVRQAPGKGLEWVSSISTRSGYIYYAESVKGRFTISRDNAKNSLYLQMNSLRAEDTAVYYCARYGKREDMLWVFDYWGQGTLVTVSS VL: DIVMTQSPLSLPVTPGEPASISCDGPSTGVGDYNYVHWYQQKPGQAPRLLIYFTSKKPSGVPDRFSGSGSGTDFTLKISRVEAEDVGVYYCQTYAAPLGPMFGQGTKLEIKR
3. 04H1207-G1m/04L1086-lam1 (antibody, human IgG1, lambda, V domains shown) VH: EVQLVESGGGLVKPGGSLRLSCAASGFTFSSKTMNWVRQAPGKGLEWVSSISTRSGYIYYAESVKGRFTISRDNAKNSLYLQMNSLRAEDTAVYYCARYGKREDMLWVFDYWGQGTLVTVSS VL: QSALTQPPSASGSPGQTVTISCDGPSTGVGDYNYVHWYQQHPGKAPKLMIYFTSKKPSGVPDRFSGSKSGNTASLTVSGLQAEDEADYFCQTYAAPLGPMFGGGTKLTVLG

Output:
0.005
0.018
0.013
